- Test system: formaldehyde induced nociceptive behaviour
- procedure-summary: Formaldehyde test in mice, second (late) phase
- Type: in vivo, mouse
- run-parameters: 0.3 mg/kg body weight po; mouse; read-out: inhibition formaldehyde test (n = 10)
Using inhibition in vivo at 0.3 mg/kg as the sorting value, the categories are low bin (below 5%), mid bin (5% to below 40%), high bin (40% or more)

compound	label-class
CCCCN(C)c1nc(C(F)(F)F)ccc1CNC(=O)C(C)c1ccc(NS(C)(=O)=O)c(F)c1 (stereo not drawn)	high bin
CC(C(=O)NCc1ccc(C(F)(F)F)nc1OCc1ccncc1)c1ccc(NS(C)(=O)=O)c(F)c1 (stereo not drawn)	mid bin
CC(C(=O)NCc1ccc(C(F)(F)F)nc1-c1cccc(F)c1)c1ccc(NS(C)(=O)=O)c(F)c1 (stereo not drawn)	high bin
CC(C(=O)NCc1ccc(C(F)(F)Cl)nc1OCc1ccccn1)c1ccc(NS(C)(=O)=O)c(F)c1 (stereo not drawn)	low bin
CC1CCN(c2nc(C(F)(F)F)ccc2CNC(=O)C(C)c2ccc(NS(C)(=O)=O)c(F)c2)CC1 (stereo not drawn)	high bin
CC(C(=O)NCc1ccc(C(F)(F)F)cc1N1CCCC1)c1ccc(NS(C)(=O)=O)c(F)c1 (stereo not drawn)	high bin
Cc1cc(C(C)C(=O)NCc2ccc(C(F)(F)F)nc2N2CCCCC2)ccc1NS(C)(=O)=O (stereo not drawn)	mid bin
CC(C(=O)NCc1ccc(C(F)(F)F)nc1OCCC(C)(C)C)c1ccc(NS(C)(=O)=O)c(F)c1 (stereo not drawn)	mid bin
CC(C(=O)NCc1ccc(C(F)(F)F)nc1N1CCC(N2CCCC2)CC1)c1ccc(NS(C)(=O)=O)c(F)c1 (stereo not drawn)	mid bin
CC(C(=O)NCc1ccc(C(F)(F)Cl)nc1OC1CCCCC1)c1ccc(NS(C)(=O)=O)c(F)c1 (stereo not drawn)	low bin
CCCCOC1CCN(c2nc(C(F)(F)F)ccc2CNC(=O)C(C)c2ccc(NS(C)(=O)=O)c(F)c2)CC1 (stereo not drawn)	mid bin
CC(C(=O)NCc1ccc(C(F)(F)F)nc1NCc1ccc(Cl)cc1)c1ccc(NS(C)(=O)=O)c(F)c1 (stereo not drawn)	low bin
